Recorded values, source patent US10336702B2.

assayed target: Akt1 (Homo sapiens, UniProt P31749)
Construct: unspecified tag, removed (detagged) (cleaved yes); purchased SignalChem and Proteros (Akt1); Merck Millipore (PDK1) 14-452 (PDK1); none given for Akt1
Sequence (P31749 whole entry): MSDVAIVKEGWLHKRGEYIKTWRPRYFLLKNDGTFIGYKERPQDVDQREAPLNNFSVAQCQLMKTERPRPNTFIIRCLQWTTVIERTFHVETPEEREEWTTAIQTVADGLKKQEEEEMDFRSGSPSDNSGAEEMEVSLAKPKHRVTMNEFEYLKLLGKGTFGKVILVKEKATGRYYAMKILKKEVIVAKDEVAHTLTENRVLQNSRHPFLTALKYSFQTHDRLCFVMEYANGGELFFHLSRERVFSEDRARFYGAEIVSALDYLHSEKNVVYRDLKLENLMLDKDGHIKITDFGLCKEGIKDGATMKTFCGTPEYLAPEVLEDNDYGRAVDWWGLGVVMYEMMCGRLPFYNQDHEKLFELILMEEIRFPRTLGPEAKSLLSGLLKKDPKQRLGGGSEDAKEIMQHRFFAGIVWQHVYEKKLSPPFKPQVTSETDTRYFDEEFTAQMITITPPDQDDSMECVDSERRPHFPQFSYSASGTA
method description: Akt activation assay (PDK1-mediated activation, LANCE Ultra crosstide TR-FRET), Akt1
Type: biochemical
condition info: read-out: Biological Assay 1 IC50 (nM) Akt1

[
  {
    "compound": "CCC(=O)N(C)[C@H]1CC[C@H](CC(=O)Nc2cnc(-c3ccc([C@]4(N)C[C@](C)(O)C4)cc3)c(-c3ccccc3)c2)CC1",
    "IC50": "3500 nM"
  },
  {
    "compound": "CC(C)(N)c1ccc(-c2ncc(NC(=O)C[C@H]3CC[C@H](N4CCCCC4=O)CC3)cc2-c2ccccc2)cc1",
    "IC50": "> 30000 nM"
  },
  {
    "compound": "COC(=O)N(C)[C@H]1CC[C@H](C(F)C(=O)Nc2cnc(-c3ccc(C4(N)CCC4)cc3)c(-c3ccccc3)c2)CC1 (relative stereo)",
    "IC50": "6100 nM"
  },
  {
    "compound": "COC(=O)N(C)[C@H]1CC[C@H](CC(=O)Nc2cc(-c3ccccc3)c(-c3ccc(C4(N)CCC4)cc3)nn2)CC1",
    "IC50": "> 16000 nM"
  },
  {
    "compound": "CC(=O)N(C)[C@H]1CC[C@H](CC(=O)Nc2cnc(-c3ccc(C4(N)CCC4)cc3)c(-c3ccccc3F)c2)CC1",
    "IC50": "7800 nM"
  },
  {
    "compound": "COC(=O)N(C)[C@H]1CC[C@H](CC(=O)Nc2cnc(-c3ccc(C4(N)CC4)c(F)c3)c(-c3ccccc3)c2)CC1",
    "IC50": "> 30000 nM"
  }
]

====

assayed target: Akt3 (Homo sapiens, UniProt Q9Y243)
Construct: unspecified tag, removed (detagged) (cleaved yes); purchased SignalChem and Proteros (Akt3); Merck Millipore (PDK1) 14-452 (PDK1); none given for Akt3
Sequence (Q9Y243 whole entry): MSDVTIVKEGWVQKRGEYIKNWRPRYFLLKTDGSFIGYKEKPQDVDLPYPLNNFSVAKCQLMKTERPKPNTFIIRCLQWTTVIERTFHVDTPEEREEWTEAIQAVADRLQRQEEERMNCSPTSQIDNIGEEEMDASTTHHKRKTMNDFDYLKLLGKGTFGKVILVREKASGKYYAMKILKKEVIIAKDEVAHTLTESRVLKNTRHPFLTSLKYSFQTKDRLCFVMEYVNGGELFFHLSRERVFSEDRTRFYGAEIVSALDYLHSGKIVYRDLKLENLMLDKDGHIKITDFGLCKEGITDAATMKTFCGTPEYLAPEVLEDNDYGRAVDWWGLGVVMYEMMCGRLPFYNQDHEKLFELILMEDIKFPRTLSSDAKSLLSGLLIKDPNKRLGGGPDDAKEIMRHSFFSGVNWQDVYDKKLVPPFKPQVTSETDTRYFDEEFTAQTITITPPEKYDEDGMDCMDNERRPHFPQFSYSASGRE
method description: Akt activation assay (PDK1-mediated activation, LANCE Ultra crosstide TR-FRET), Akt3
Assay type: biochemical
condition info: read-out: Biological Assay 1 IC50 (nM) Akt3
Label true when IC50 < 20 nM; otherwise false.

[
  {
    "given smiles": "CCC(=O)N(C)[C@H]1CC[C@H](CC(=O)Nc2cc(-c3ccccc3)c(-c3ccc([C@]4(N)C[C@H](F)C4)cc3)nn2)CC1",
    "assigned class": "true"
  },
  {
    "given smiles": "CC(C)N(C(=O)C1CC1)[C@H]1CC[C@H](CC(=O)Nc2cc(-c3ccccc3)c(-c3ccc([C@]4(N)C[C@](C)(O)C4)cc3)cn2)CC1",
    "assigned class": "false"
  },
  {
    "given smiles": "CC(C)(N)c1ccc(-c2nnc(NC(=O)C[C@H]3CC[C@H](N4CCOC4=O)CC3)cc2-c2ccccc2)cc1",
    "assigned class": "false"
  },
  {
    "given smiles": "CC(=O)N(C)[C@H]1CC[C@H](CC(=O)Nc2cc(-c3ccccc3)c(-c3ccc([C@]4(N)C[C@](C)(O)C4)cc3)cn2)CC1",
    "assigned class": "true"
  },
  {
    "given smiles": "CC(=O)N(C)[C@H]1CC[C@H](CC(=O)Nc2cnc(-c3ccc([C@@H](C)N)cc3)c(-c3ccccc3)c2)CC1",
    "assigned class": "false"
  },
  {
    "given smiles": "C[C@]1(O)C[C@@](N)(c2ccc(-c3cnc(NC(=O)C[C@H]4CC[C@H](N5CCOC5=O)CC4)cc3-c3ccccc3)cc2)C1",
    "assigned class": "true"
  }
]
